- Target Entity: Sphingosine 1-phosphate receptor 1 (Macaca mulatta, UniProt H9EUW9)
- Sequence (H9EUW9 whole entry): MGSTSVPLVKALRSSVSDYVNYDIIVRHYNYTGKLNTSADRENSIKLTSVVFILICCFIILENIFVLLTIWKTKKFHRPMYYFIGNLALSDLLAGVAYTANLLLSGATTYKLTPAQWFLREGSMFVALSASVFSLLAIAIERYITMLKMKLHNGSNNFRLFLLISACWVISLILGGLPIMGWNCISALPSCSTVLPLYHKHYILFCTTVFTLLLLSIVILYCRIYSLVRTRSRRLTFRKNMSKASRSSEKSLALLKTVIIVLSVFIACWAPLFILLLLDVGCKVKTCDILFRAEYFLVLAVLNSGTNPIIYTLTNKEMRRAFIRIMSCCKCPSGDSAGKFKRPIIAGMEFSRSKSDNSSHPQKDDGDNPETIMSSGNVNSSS
- Measurement Notes: Agonist activity at monkey S1P1 receptor assessed as cAMP accumulation by HTRF assay
Parameter: EC50 (nM)
Provide the reading as a plain figure in nM.

Given item O=C(O)C[C@H]1CCc2c1[nH]c1ccc(OCc3ccc(C4CCCC4)c(C(F)(F)F)c3)cc21 , the value recorded as its EC50 is 0.32

###

- Measurement Notes: Elimination half life in mouse at 1 mg/kg, po
- Assay type: ADME, organism-based
- Parameters: dose 1 mg/kg, route oral
- Measurement Parameters: in vivo, read-out: beta t1/2 (converted)
Parameter: half-life (h)
Expressed in h, but write only the number.

Recorded result, O=C(O)C[C@H]1CCc2c1[nH]c1ccc(OCc3ccc(C4CCCC4)c(C(F)(F)F)c3)cc21 [ETRASIMOD] , half-life: 12.3

###

- Measurement Notes: Cmax in rat at 1 mg/kg equivalent, po
- Type: ADME, organism-based
- Parameters: dose 1 mg/kg, route oral
- Measurement Parameters: in vivo
Parameter: Cmax (µg/mL)
Note: unit µg/mL is implicit; provide only the numeric part.

Cmax in this record for O=C(O)C[C@H]1CCc2c1[nH]c1ccc(OCc3ccc(C4CCCC4)c(C(F)(F)F)c3)cc21 [ETRASIMOD] : 0.361

###

- Measurement Notes: Elimination half life in monkey at 3 mg/kg, po
- Type: ADME, organism-based, Macaca mulatta
- Set-up: dose 3 mg/kg, route oral
- Measurement Parameters: rhesus monkey, in vivo, read-out: beta t1/2 (converted)
Parameter: half-life (h)
// note: answer is a bare numeric in h

Input O=C(O)C[C@H]1CCc2c1[nH]c1ccc(OCc3ccc(C4CCCC4)c(C(F)(F)F)c3)cc21 [ETRASIMOD] . Output half-life: 6.37

###

- Measurement Notes: Systemic clearance in rat at 1 mg/kg, iv
- Type: ADME, organism-based
- Set-up: dose 1 mg/kg, route intravenous
- Measurement Parameters: in vivo
Parameter: clearance (mL/min/kg)
Response body: numeric value in mL/min/kg, unit text excluded.

Query O=C(O)C[C@H]1CCc2c1[nH]c1ccc(OCc3ccc(C4CCCC4)c(C(F)(F)F)c3)cc21 yields clearance of 2.42

###

- Target Entity: Voltage-gated inwardly rectifying potassium channel KCNH2 (Homo sapiens, UniProt Q12809)
- Sequence (Q12809 whole entry): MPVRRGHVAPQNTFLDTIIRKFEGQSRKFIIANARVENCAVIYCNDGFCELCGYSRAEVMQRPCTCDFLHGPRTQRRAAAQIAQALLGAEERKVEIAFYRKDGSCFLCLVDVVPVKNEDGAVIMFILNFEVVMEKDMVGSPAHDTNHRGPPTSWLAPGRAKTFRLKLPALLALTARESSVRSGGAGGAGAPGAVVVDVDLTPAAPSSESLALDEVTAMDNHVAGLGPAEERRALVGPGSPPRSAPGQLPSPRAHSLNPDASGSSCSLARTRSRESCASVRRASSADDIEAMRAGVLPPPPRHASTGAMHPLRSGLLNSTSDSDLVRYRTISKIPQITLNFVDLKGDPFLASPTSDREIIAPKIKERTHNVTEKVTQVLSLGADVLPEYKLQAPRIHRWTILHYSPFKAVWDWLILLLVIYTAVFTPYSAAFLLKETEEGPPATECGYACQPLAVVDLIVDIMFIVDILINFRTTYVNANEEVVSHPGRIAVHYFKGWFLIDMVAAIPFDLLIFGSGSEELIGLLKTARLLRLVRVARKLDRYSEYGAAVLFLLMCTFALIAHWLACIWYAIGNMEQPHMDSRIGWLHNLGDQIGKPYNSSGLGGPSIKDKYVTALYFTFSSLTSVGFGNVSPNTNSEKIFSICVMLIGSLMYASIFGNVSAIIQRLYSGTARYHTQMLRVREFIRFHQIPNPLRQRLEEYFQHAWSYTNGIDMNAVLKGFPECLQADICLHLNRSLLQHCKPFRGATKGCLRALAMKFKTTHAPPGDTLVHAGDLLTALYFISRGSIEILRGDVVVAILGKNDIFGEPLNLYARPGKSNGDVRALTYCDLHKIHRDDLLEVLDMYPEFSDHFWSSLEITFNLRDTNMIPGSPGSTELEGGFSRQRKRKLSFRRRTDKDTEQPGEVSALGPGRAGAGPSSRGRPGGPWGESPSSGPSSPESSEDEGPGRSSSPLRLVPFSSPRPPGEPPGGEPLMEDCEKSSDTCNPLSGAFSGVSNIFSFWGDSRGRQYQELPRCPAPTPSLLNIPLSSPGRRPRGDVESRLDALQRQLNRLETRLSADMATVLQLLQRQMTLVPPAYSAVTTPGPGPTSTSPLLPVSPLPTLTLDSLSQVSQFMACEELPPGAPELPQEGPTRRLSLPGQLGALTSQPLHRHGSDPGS
- Measurement Notes: Displacement of [3H]astemizole from human ERG
pIC50: −log10 of the molar value.
Parameter: pIC50

According to the records, this compound O=C(O)C[C@H]1CCc2c1[nH]c1ccc(OCc3ccc(C4CCCC4)c(C(F)(F)F)c3)cc21 [ETRASIMOD] displays pIC50 of < 4.52

###

- Measurement Notes: Volume of distribution at steady state in dog at 1 mg/kg, iv
- Type: ADME, organism-based, Canis lupus familiaris
- Parameters: dose 1 mg/kg, route intravenous
- Measurement Parameters: in vivo, read-out: Vdss
Parameter: Vd (L/kg)
Express the result in L/kg but write the number alone.

Just so you know, measured Vd for O=C(O)C[C@H]1CCc2c1[nH]c1ccc(OCc3ccc(C4CCCC4)c(C(F)(F)F)c3)cc21 came out at 0.609

###

- Measurement Notes: Half life in monkey liver microsomes
- Format: ADME, Macaca mulatta
- Measurement Parameters: rhesus monkey
Parameter: half-life

Summary for this compound, O=C(O)C[C@H]1CCc2c1[nH]c1ccc(OCc3ccc(C4CCCC4)c(C(F)(F)F)c3)cc21 [ETRASIMOD] : half-life is > 1 h
